- test_target: T1, Ribonuclease A (Type II-A) from bovine pancreas (bovine, UniProt P61823 27-150)
- T1 construct: mature; The probe assay used the RNase A of a bought kit (Abcam ab273299); also called RNase A; bovine pancreatic RNase A
- T1 sequence (looked up): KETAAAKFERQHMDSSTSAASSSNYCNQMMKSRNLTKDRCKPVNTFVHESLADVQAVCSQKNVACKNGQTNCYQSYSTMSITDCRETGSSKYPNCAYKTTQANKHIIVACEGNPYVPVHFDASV
- measurement_description: SPR biosensor, RNase A immobilized on the Au chip, peptide in solution
measurement_label: Kd (µM)
Report as a plain number; the unit µM is understood.

Worked cases, answers included:
YGPVGRVKRDD (also called peptides-2) [Peptide-2, synthetic peptide with the CDR3 sequence of the screened clone]
1.3
DGTAKKSRKDD (also called peptides-3) [Peptide-3, synthetic peptide with the CDR3 sequence of the screened clone]
3.7

Turning now to a further record.
## Task Tell us which Kd value is on record for CGPDSDVMTDF (Bought from Peptron, 90% purity; Peptide-1 is tied to the CDR3 of clone 5 / Fv-1 by the order of the names only; also called peptides-1) [Peptide-1, synthetic peptide with the CDR3 sequence of the screened clone]
## Result 1.3

Data origin: patent US20260217863A1
